# Test summary: Biodistribution of Al^18F(IMP485) alone or TF2 pretargeted
# Experimental conditions: nude (Taconic), mouse, in vivo, iv, 28 uCi, total radioactivity, % ID/g Scapula, alone, 1 h post injection
Outcome measure: tissue uptake at 1 h
Field note: include the unit after the figure.

-- ask Supply tissue uptake at 1 h value. Item: NC(=O)[C@@H](CCCCNC(=O)CNC(=O)CCC(=O)NCCc1c[nH]cn1)NC(=O)[C@@H](Cc1ccc(O)cc1)NC(=O)[C@@H](CCCCNC(=O)CNC(=O)CCC(=O)NCCc1c[nH]cn1)NC(=O)Cc1ccc(CN2CCN(CC(=O)O)CCN(CC(=O)O)CC2)cc1 [Al^18F(IMP485)]
-- reply 0.107 %ID/g

###

# Test summary: Biodistribution of Al^18F(IMP485) alone or TF2 pretargeted
# Experimental conditions: nude, mouse, in vivo, iv, 28 uCi, total radioactivity, % ID/g Stomach, alone, 3 h post injection
Outcome measure: tissue uptake at 3 h (%ID/g)
# value in %ID/g; strip the unit string

-- ask Supply tissue uptake at 3 h value. Item: NC(=O)[C@@H](CCCCNC(=O)CNC(=O)CCC(=O)NCCc1c[nH]cn1)NC(=O)[C@@H](Cc1ccc(O)cc1)NC(=O)[C@@H](CCCCNC(=O)CNC(=O)CCC(=O)NCCc1c[nH]cn1)NC(=O)Cc1ccc(CN2CCN(CC(=O)O)CCN(CC(=O)O)CC2)cc1 [Al^18F(IMP485)]
-- reply 0.041

###

# Test summary: Biodistribution of Al^18F(IMP485) alone or TF2 pretargeted
# Experimental conditions: nude, mouse, in vivo, iv, 28 uCi, total radioactivity, % ID/org Blood, alone, 3 h post injection
Outcome measure: tissue uptake dose at 3 h
Field note: include the unit after the figure.

-- ask Supply tissue uptake dose at 3 h value. Item: NC(=O)[C@@H](CCCCNC(=O)CNC(=O)CCC(=O)NCCc1c[nH]cn1)NC(=O)[C@@H](Cc1ccc(O)cc1)NC(=O)[C@@H](CCCCNC(=O)CNC(=O)CCC(=O)NCCc1c[nH]cn1)NC(=O)Cc1ccc(CN2CCN(CC(=O)O)CCN(CC(=O)O)CC2)cc1 [Al^18F(IMP485)]
-- reply 0.013 %ID

###

# Test summary: in vivo
# Experimental conditions: nude (Taconic), mouse, in vivo, iv, 28 uCi, total radioactivity, % ID/g Lung
Outcome measure: tissue uptake at 1 h (%ID/g)
# value in %ID/g; strip the unit string

-- ask Supply tissue uptake at 1 h value. Item: NC(=O)[C@@H](CCCCNC(=O)CNC(=O)CCC(=O)NCCc1c[nH]cn1)NC(=O)[C@@H](Cc1ccc(O)cc1)NC(=O)[C@@H](CCCCNC(=O)CNC(=O)CCC(=O)NCCc1c[nH]cn1)NC(=O)Cc1ccc(CN2CCN(CC(=O)O)CCN(CC(=O)O)CC2)cc1 [Al^18F(IMP485)]
-- reply 0.238

###

# Test summary: Biodistribution of Al^18F(IMP485) alone or TF2 pretargeted
# Experimental conditions: nude (Taconic), mouse, in vivo, iv, 28 uCi, total radioactivity, % ID/org Scapula, alone, 1 h post injection
Outcome measure: tissue uptake dose at 1 h (%ID)
# value in %ID; strip the unit string

-- ask Supply tissue uptake dose at 1 h value. Item: NC(=O)[C@@H](CCCCNC(=O)CNC(=O)CCC(=O)NCCc1c[nH]cn1)NC(=O)[C@@H](Cc1ccc(O)cc1)NC(=O)[C@@H](CCCCNC(=O)CNC(=O)CCC(=O)NCCc1c[nH]cn1)NC(=O)Cc1ccc(CN2CCN(CC(=O)O)CCN(CC(=O)O)CC2)cc1 [Al^18F(IMP485)]
-- reply 0.006

###

# Test summary: Biodistribution of Al^18F(IMP485) alone or TF2 pretargeted
# Experimental conditions: nude, mouse, in vivo, iv, 28 uCi, total radioactivity, % ID/g Tumor, alone, 3 h post injection
Outcome measure: tissue uptake at 3 h
Field note: include the unit after the figure.

-- ask Supply tissue uptake at 3 h value. Item: NC(=O)[C@@H](CCCCNC(=O)CNC(=O)CCC(=O)NCCc1c[nH]cn1)NC(=O)[C@@H](Cc1ccc(O)cc1)NC(=O)[C@@H](CCCCNC(=O)CNC(=O)CCC(=O)NCCc1c[nH]cn1)NC(=O)Cc1ccc(CN2CCN(CC(=O)O)CCN(CC(=O)O)CC2)cc1 [Al^18F(IMP485)]
-- reply 0.088 %ID/g

###

# Test summary: PET/CT images, region of interest ratios
# Type: in vivo, mice
# Experimental conditions: male, BALB/c nude, mouse, iv, total radioactivity, mice with LS174T tumor and inflamed muscle; ^68Ga(IMP288) after TF2; read-out: tumor-to-background ratio in PET/CT image
*1 amine or outer side, *2 acyl side, *3 side chain or, on linkers, in order; H or OH if unused. Where a SMILES comes first, the peptide text is derived from it. Side-chain parts run from the residue outwards. [ ]: non-standard residue; d: D form. The star is where a group is joined. DOTA = O=C(O)CN1CCN(CC(=O)O)CCN(CC(=O)*)CCN(CC(=O)O)CC1; NH(2-(imidazol-4-yl)ethyl) = c1ncc(CCN*)[nH]1; Suc = O=C(CCC(=O)[*:2])[*:1]
Outcome measure: tissue to tissue ratio at 1 h
Please reply with the number alone, leaving off any unit.

-- ask Supply tissue to tissue ratio at 1 h value. Item: NC(=O)[C@@H](CCCCNC(=O)CNC(=O)CCC(=O)NCCc1c[nH]cn1)NC(=O)[C@@H](CCC(=O)O)NC(=O)[C@@H](CCCCNC(=O)CNC(=O)CCC(=O)NCCc1c[nH]cn1)NC(=O)[C@@H](Cc1ccc(O)cc1)NC(=O)CN1CCN(CC(=O)O)CCN(CC(=O)O)CCN(CC(=O)O)CC1 [^68Ga(IMP288), metal not drawn] ({DOTA}-[dY][dK]([Gly-Suc-NH(2-(imidazol-4-yl)ethyl)])[dE][dK]([Gly-Suc-NH(2-(imidazol-4-yl)ethyl)])-NH2)
-- reply 48

###

# Test summary: in vivo
# Experimental conditions: Taconic nude, mouse, in vivo, iv, % ID/g Kidney
Outcome measure: tissue uptake at 1 h (%ID/g)
# value in %ID/g; strip the unit string

-- ask Supply tissue uptake at 1 h value. Item: NC(=O)[C@@H](CCCCNC(=O)CNC(=O)CCC(=O)NCCc1c[nH]cn1)NC(=O)[C@@H](Cc1ccc(O)cc1)NC(=O)[C@@H](CCCCNC(=O)CNC(=O)CCC(=O)NCCc1c[nH]cn1)NC(=O)Cc1ccc(CN2CCN(CC(=O)O)CCN(CC(=O)O)CC2)cc1 [Al^18F(IMP485)]
-- reply 3.19

###

# Test summary: in vivo
# Experimental conditions: nude (Taconic), mouse, in vivo, iv, total radioactivity, % ID/org Spleen
Outcome measure: tissue uptake dose at 3 h (%ID)
# value in %ID; strip the unit string

-- ask Supply tissue uptake dose at 3 h value. Item: NC(=O)[C@@H](CCCCNC(=O)CNC(=O)CCC(=O)NCCc1c[nH]cn1)NC(=O)[C@@H](Cc1ccc(O)cc1)NC(=O)[C@@H](CCCCNC(=O)CNC(=O)CCC(=O)NCCc1c[nH]cn1)NC(=O)Cc1ccc(CN2CCN(CC(=O)O)CCN(CC(=O)O)CC2)cc1 [Al^18F(IMP485)]
-- reply 0.011

###

# Test summary: in vivo
# Experimental conditions: nude (Taconic), mouse, in vivo, iv, total radioactivity, % ID/org Kidney
# Experimental: Mice were necropsied at 1 and 3 h post injection, 7 mice per time point. Biodistribution studies were performed in Taconic nude mice bearing subcutaneous LS174T tumor xenografts. Mice were necropsied at 1 and 3 h post injection, 6 mice per time point.
Outcome measure: tissue uptake dose at 3 h (%ID)
# value in %ID; strip the unit string

-- ask Supply tissue uptake dose at 3 h value. Item: NC(=O)[C@@H](CCCCNC(=O)CNC(=O)CCC(=O)NCCc1c[nH]cn1)NC(=O)[C@@H](Cc1ccc(O)cc1)NC(=O)[C@@H](CCCCNC(=O)CNC(=O)CCC(=O)NCCc1c[nH]cn1)NC(=O)Cc1ccc(CN2CCN(CC(=O)O)CCN(CC(=O)O)CC2)cc1 [Al^18F(IMP485)]
-- reply 0.319

###

# Test summary: in vivo
# Experimental conditions: Taconic nude, mouse, in vivo, iv, % ID/org Scapula
Outcome measure: tissue uptake dose at 1 h (%ID)
# value in %ID; strip the unit string

-- ask Supply tissue uptake dose at 1 h value. Item: NC(=O)[C@@H](CCCCNC(=O)CNC(=O)CCC(=O)NCCc1c[nH]cn1)NC(=O)[C@@H](Cc1ccc(O)cc1)NC(=O)[C@@H](CCCCNC(=O)CNC(=O)CCC(=O)NCCc1c[nH]cn1)NC(=O)Cc1ccc(CN2CCN(CC(=O)O)CCN(CC(=O)O)CC2)cc1 [Al^18F(IMP485)]
-- reply 0.095

###

# Test summary: in vivo
# Experimental conditions: Taconic nude, mouse, in vivo, iv, % ID/g Sm. Int.
Outcome measure: tissue uptake at 3 h (%ID/g)
# value in %ID/g; strip the unit string

-- ask Supply tissue uptake at 3 h value. Item: NC(=O)[C@@H](CCCCNC(=O)CNC(=O)CCC(=O)NCCc1c[nH]cn1)NC(=O)[C@@H](Cc1ccc(O)cc1)NC(=O)[C@@H](CCCCNC(=O)CNC(=O)CCC(=O)NCCc1c[nH]cn1)NC(=O)Cc1ccc(CN2CCN(CC(=O)O)CCN(CC(=O)O)CC2)cc1 [Al^18F(IMP485)]
-- reply 0.071

Reference source for all entries: patent US20160199524A1
